Data origin, for the record: patent US9655363B2

Please provide measured pest or weed control at 200 ppm for the entries that follow.
- System: Puccinia Recondita f. sp. Tritici
- test method notes: Puccinia recondita f. sp. tritici / wheat / leaf disc curative (brown rust)
- Assay type: in vivo
- condition context: foliar, 192 h, compared to untreated, 8 days after inoculation, read-out: disease control

# lookup: pest or weed control at 200 ppm of N#Cc1ccc(C2(C(O)(Cn3cncn3)c3ccc(F)cc3)CC2)nc1 (centres unmarked) [Compound 12]
≥ 80%

Would you mind telling me what pest or weed control at 200 ppm value was observed for OC(Cn1cncn1)(c1ccc(F)cc1)C1(c2ccccn2)CC1 (centres unmarked) [Compound 10] ?
≥ 80%

Bench note: what pest or weed control at 200 ppm did OC(Cn1cncn1)(c1ccc(F)cc1)C1(c2ncc(Br)cc2Cl)CC1 (centres unmarked) [Compound 2] show?
≥ 80%

I'd like to know its pest or weed control at 200 ppm. The compound in question is OC(Cn1cncn1)(c1ccc(F)cc1)C1(c2ccc(Br)cn2)CCC1 (centres unmarked) [Compound 17]
≥ 80%

For the compound shown here, OC(Cn1ccnc1)(c1ccc(F)cc1)C1(c2ccc(Br)cn2)CC1 (centres unmarked) [Compound 3] , give the reported pest or weed control at 200 ppm.
≥ 80%

Record request: pest or weed control at 200 ppm value, item OC(Cn1cncn1)(c1ccc(Cl)cc1)C1(c2ccc(Cl)cn2)CCC1 (centres unmarked) [Compound 16]
≥ 80%

Can you share its pest or weed control at 200 ppm? I mean this compound: OC(Cn1cncn1)(c1ccc(Cl)cc1)C1(c2ccccn2)CC1 (centres unmarked) [Compound 1]
≥ 80%

Fill blank: measured pest or weed control at 200 ppm of the compound OC(Cn1cncn1)(c1ccc(Cl)cc1)C1(c2ccc(Cl)cn2)CC1 (centres unmarked) [Compound 11] is ____.
≥ 80%
